molecular target: hK3 (human kallikrein) (Human), P07288; test: enzyme inhibition, selectivity panel; apparent Ki (Kiapp)
Sequence (P07288 25-261): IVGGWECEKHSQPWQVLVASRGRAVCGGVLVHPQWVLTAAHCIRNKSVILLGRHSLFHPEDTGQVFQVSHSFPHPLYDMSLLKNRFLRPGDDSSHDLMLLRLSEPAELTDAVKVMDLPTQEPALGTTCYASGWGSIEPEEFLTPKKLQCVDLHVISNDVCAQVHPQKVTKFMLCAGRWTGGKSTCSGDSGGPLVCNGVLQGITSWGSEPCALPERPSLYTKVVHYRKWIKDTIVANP
Readout Label: Ki (nM)
One number for each entry, in nM.

-- ask Please look up its Ki: GVCPRILKKCRRDSDCPGACICRGNGYCG (modifications not checked) [MCoTI-R]
-- reply 100
